System: U2OS
Measurement Protocol: Multiplex assay against U2OS
Assay type: toxicity, cell-based
Condition Description: human, 24 h, 10 µM, compound concentration 10 uM, replicate 1
Exercise: for every item that follows, state its recorded Population Mitochondria Different-Phenotype (%).
Output spec: scalar in %, unitless text.

## Input Which value of Population Mitochondria Different-Phenotype (%) has been reported for COc1cc2nc(N3CCN(C(=O)c4ccco4)CC3)nc(N)c2cc1OC.Cl [PRAZOSIN HYDROCHLORIDE] in the records?
## Output 6

## Input Please look up its Population Mitochondria Different-Phenotype (%): C[C@@H]1CC(=O)Nc2cccc(-c3ccc4c(c3)c(-c3cnn(C)c3)nn4C)c2N1
## Output 6

## Input Record request: Population Mitochondria Different-Phenotype (%) value, item CSc1nc(NC2CCCC2)c([N+](=O)[O-])c(NC2CCCC2)n1
## Output 6

====

I'd appreciate it if you could supply Population Apoptotic (%) values for the items below.
System: U2OS
Measurement Protocol: Multiplex assay against U2OS
Format: toxicity, cell-based
Condition Description: human, 48 h, 1 µM, compound concentration 1 uM, replicate 2
The reply should contain only the number, in %.

## Input Using the record for Nc1nc(-c2ccco2)c2cnn(Cc3ccccc3F)c2n1 , report its Population Apoptotic (%).
## Output 95

## Input Would you kindly share the measured Population Apoptotic (%) for CCC(=O)OCC(=O)[C@@]1(OC(=O)CC)[C@@H](C)C[C@H]2[C@@H]3CCC4=CC(=O)C=C[C@]4(C)[C@@]3(Cl)[C@@H](O)C[C@@]21C [BECLOMETHASONE DIPROPIONATE] ?
## Output 85

## Input Fill blank: measured Population Apoptotic (%) of the compound Cc1ccc(OCC(O)C(C)NC(C)C)c2c1CCC2.Cl (stereo not drawn) is ____.
## Output 80

====

Provide the reported Population Healthy Nuclei (%) of each item.
System: U2OS
Measurement Protocol: Multiplex assay against U2OS
Type: toxicity, cell-based
Condition Description: human, 24 h, 10 µM, compound concentration 10 uM, replicate 1
Reply numerically in %, unit not repeated.

## Input Which value of Population Healthy Nuclei (%) has been reported for CC(C)(O)C(=O)N1CCN(c2ccc(C(F)(F)F)c(C3=C(c4c[nH]c5ccccc45)C(=O)NC3=O)c2)CC1 in the records?
## Output 27

## Input Bench note: what Population Healthy Nuclei (%) did CN(C)C(=O)Cn1cc(-c2ccc(-c3nnc4ccccn34)cc2)cn1 show?
## Output 66

## Input Population Healthy Nuclei (%) lookup needed for CN1C[C@H](C(=O)N[C@]2(C)O[C@@]3(O)[C@@H]4CCCN4C(=O)[C@H](Cc4ccccc4)N3C2=O)C[C@@H]2c3cccc4[nH]cc(c34)C[C@H]21.CS(=O)(=O)O [DIHYDROERGOTAMINE MESYLATE] , thanks.
## Output 73

## Input Given the molecule CCCCCCNC(=O)Nc1ccc(S(=O)(=O)Nc2ccc(CCNC[C@H](O)COc3ccc(O)cc3)cc2)cc1 [L-755507] , what is its reported Population Healthy Nuclei (%)?
## Output 65

====

Exercise: for every item that follows, state its recorded Population Mitotic Cells (%).
Tested on: U2OS
Measurement Protocol: Multiplex assay against U2OS
Type: toxicity, cell-based
Condition Description: human, 24 h, 10 µM, compound concentration 10 uM, replicate 2
Non-standard residues stand in square brackets, D forms with d. Residues, ends and D or L forms follow the SMILES beside them.
Numeric answer only, unit % assumed.

## Input Fill in: Population Mitotic Cells (%) of CC(C)(C)c1ccc(CSc2cnn(C(C)(C)C)c(=O)c2Cl)cc1 [PYRIDABEN] is ___
## Output 20

## Input Looking for the measured Population Mitotic Cells (%) of O=c1ccc2ccc(OCCCCN3CCN(c4cccc5sccc45)CC3)cc2[nH]1 [BREXPIPRAZOLE] , can you help?
## Output 8

## Input Would you kindly share the measured Population Mitotic Cells (%) for CN1C[C@H](C(=O)N[C@]2(C)O[C@@]3(O)[C@@H]4CCCN4C(=O)[C@H](Cc4ccccc4)N3C2=O)C[C@@H]2c3cccc4[nH]cc(c34)C[C@H]21.CS(=O)(=O)O [DIHYDROERGOTAMINE MESYLATE] ?
## Output 7

## Input I have this molecule here, CC(C)C[C@@H]1NC(=O)[C@@H](C(C)C)NC(=O)[C@@H]2CCCN2C(=O)[C@@H](CC(=O)O)NC(=O)[C@@H](Cc2c[nH]c3ccccc23)NC1=O [BQ-123] (cyclo(L[dW][dD]P[dV])) , and I need its recorded Population Mitotic Cells (%).
## Output 0

## Input Bench note: what Population Mitotic Cells (%) did Cc1ccc(OCC(O)C(C)NC(C)C)c2c1CCC2.Cl (configuration not stated) show?
## Output 7

## Input Any idea what Population Mitotic Cells (%) was measured for COc1cc2nc(N3CCN(C(=O)c4ccco4)CC3)nc(N)c2cc1OC.Cl [PRAZOSIN HYDROCHLORIDE] ?
## Output 14

## Input Query (molecule): S=C(NCCCc1c[nH]cn1)NCCCN(Cc1ccc(Cl)c(Cl)c1)c1ccc(Br)cn1 ; field requested: Population Mitotic Cells (%)
## Output 39

## Input Please look up its Population Mitotic Cells (%): N[C@](CC1c2ccccc2Oc2ccccc21)(C(=O)O)[C@H]1C[C@@H]1C(=O)O
## Output 18

## Input Please report the recorded Population Mitotic Cells (%) for Cc1cc(=O)n(C)c2cc(N3C(=O)CC[C@H](NS(=O)(=O)CC(C)C)[C@H]3c3ccc(Cl)cc3)ccc12 .
## Output 18

## Input Item under review: COCCn1c(C)c(C)s/c1=N\C(=O)C1C(C)(C)C1(C)C . Reported Population Mitotic Cells (%)?
## Output 11

## Input I'd like to know its Population Mitotic Cells (%). The molecule in question is COc1ccc2c(c1OCc1ccccc1)C[C@@H](C(=O)O)N(C(=O)C(c1ccccc1)c1ccccc1)C2 [OLODANRIGAN]
## Output 50

## Input Returns the measured Population Mitotic Cells (%) for the input molecule. Input: Cc1sc2c(c1C)C(c1ccc(Cl)cc1)=N[C@H](CC(=O)OC(C)(C)C)c1nnc(C)n1-2
## Output 23

## Input # Population Mitotic Cells (%) lookup, item O=C(NCCNCC(O)COc1ccc(O)cc1)N1CCOCC1.O=C(NCCNCC(O)COc1ccc(O)cc1)N1CCOCC1.O=C(O)/C=C/C(=O)O (configuration not stated) [XAMOTEROL FUMARATE]
## Output 21

## Input Report Population Mitotic Cells (%) for O=C(Nc1cc(-c2ccccc2)nn1-c1ccccc1F)c1ccc([N+](=O)[O-])cc1 please.
## Output 0

## Input Which Population Mitotic Cells (%) is listed for COCCCN1CCC(NC(=O)c2cc(Cl)c(N)c3c2OCC3)CC1 [PRUCALOPRIDE] ?
## Output 22

## Input # query: Population Mitotic Cells (%) of entry COc1c(Nc2ccc(S(C)(=O)=O)nc2C)ncnc1OC1CCN(C(=O)OC(C)C)CC1 [ADP-597]
## Output 16

## Input Which Population Mitotic Cells (%) is reported for this molecule? Cc1cc(NC(=O)NCCN2CCC(O)(Cc3ccccc3)CC2)c2ccccc2n1 [PALOSURAN]
## Output 25

## Input # lookup: Population Mitotic Cells (%) of CN1CCC(C(=O)c2cccc(NC(=O)c3c(F)cc(F)cc3F)n2)CC1
## Output 33

## Input I'd like to know its Population Mitotic Cells (%). The molecule in question is CN(C)C(=O)Cn1cc(-c2ccc(-c3nnc4ccccn34)cc2)cn1
## Output 12

## Input Value lookup for Population Mitotic Cells (%); key = Cc1nn(C)c2nc(NNC(=O)Nc3cc(Cl)nc(Cl)c3)cc(C(C)C)c12
## Output 30

## Input Dear colleague, I am looking for the recorded Population Mitotic Cells (%) of the following molecule: COc1cc(C(=O)N2CC[C@@H](O)[C@@H](N)C2)cc2nc(-c3cc4ccccc4n3CC3CC3)n(C)c12.Cl
## Output 28

## Input Could you tell me which Population Mitotic Cells (%) is on file for Nc1nc(-c2ccco2)c2cnn(Cc3ccccc3F)c2n1 ?
## Output 9
